Origin of measurements: paper PMC4057667

Experimental details: Pharmacokinetic study in beagle dogs
Format: in vivo
Test context: beagle, dog, plasma, iv, 30 mg/kg, mean ± SD, n = 3
Test readout: MRT (h)

- CNC(=O)c1cc(Oc2ccc(NC(=O)c3cccc(C(F)(F)F)c3)cc2)ccn1.Cc1ccc(S(=O)(=O)O)cc1.O: 1.62

---

Experimental details: Pharmacokinetic study in beagle dogs
Format: in vivo
Test context: beagle, dog, plasma, iv, 30 mg/kg, Beagle3
Test readout: Cmax (ng/mL)

- CNC(=O)c1cc(Oc2ccc(NC(=O)c3cccc(C(F)(F)F)c3)cc2)ccn1.Cc1ccc(S(=O)(=O)O)cc1.O [NCE]: 21600

---

Experimental details: Pharmacokinetic study in beagle dogs
Type: in vivo
Test context: beagle, dog, plasma, iv, 30 mg/kg, Beagle 1
Test readout: Tmax

- CNC(=O)c1cc(Oc2ccc(NC(=O)c3cccc(C(F)(F)F)c3)cc2)ccn1.Cc1ccc(S(=O)(=O)O)cc1.O [NCE]: 13.8 min
